Assay: M. tuberculosis growth inhibition, HTS (AID 449762);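 also: bacterial growth assessed after seven days of incubation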
Conditions: M. tuberculosis H37Rv growth inhibition, 7H9 media; at 25 µM; stronger effect = higher value
Screen size: about 330,000 compounds; about 1,900 (0.58%) were called active. Inconclusive results (about 4%) are left out. Not all results are given here. Results with a measured potency or affinity are listed apart.
quantity-name: inhibition (%)
All answers are understood in %, so give the number only.

query: Find the recorded inhibition belonging to Cc1coc2c(C)c3oc(=O)c(CCC(=O)N4CCC(C(=O)NCCCC(=O)O)(c5ccccc5)CC4)c(C)c3cc12 and report it.
result: 5.29

query: Find the recorded inhibition belonging to C=CCN1C(=O)/C(=C/c2cccs2)S/C1=N\S(=O)(=O)c1ccc(F)cc1 and report it.
result: 0.38

query: Find the recorded inhibition belonging to O=C(c1cc(F)ccc1F)C1CCCN(CCCc2ccccc2)C1 (stereo not drawn) and report it.
result: 10.3

---

Assay: M. tuberculosis growth inhibition, HTS (AID 449762);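 also: bacterial growth assessed after seven days of incubation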
Settings: M. tuberculosis H37Rv growth inhibition, 7H9 media; at 25 µM; stronger effect = higher value
Among all 330,000 compounds or so, about 1,900 (0.58%) were called active. Inconclusive results (about 4%) are left out. A selection follows. Entries with a potency or affinity are not part of this list.
quantity-name: inhibition (%)
All answers are understood in %, so give the number only.

query: Find the recorded inhibition belonging to CN1C2CCC1/C(=C/c1cccn1C)C(=O)/C2=C\c1cccn1C and report it.
result: 10.6

query: Find the recorded inhibition belonging to Cc1nc2c(c(=O)c3ccccc3n2C)c(=O)n1C1CCCCCC1 and report it.
result: -2.45

query: Find the recorded inhibition belonging to Cc1cccc(OCC(=O)NNC(=O)Cn2c(=O)cnc3ccccc32)c1 and report it.
result: -8.21

---

Experiment: M. tuberculosis growth inhibition, HTS (AID 449762);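 also: bacterial growth assessed after seven days of incubation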
Details: M. tuberculosis H37Rv growth inhibition, 7H9 media; at 25 µM; stronger effect = higher value
The campaign covered roughly 330,000 compounds. About 1,900 (0.58%) were called active. Roughly 4% stayed inconclusive and do not appear here. A selection follows. Measured potencies and affinities stand elsewhere.
quantity-name: inhibition (%)
All answers are understood in %, so give the number only.

query: Find the recorded inhibition belonging to CCOC(=O)c1c(NC(=O)CC2SC(N)=NC2=O)sc(C)c1C (stereo unspecified) and report it.
result: 0.41

query: Find the recorded inhibition belonging to CCCCCCSc1ccc([C@H]2N[C@@](CC(C)C)(C(=O)OC)[C@H]3C(=O)N(CC)C(=O)[C@@H]23)cc1 and report it.
result: -1.98

query: Find the recorded inhibition belonging to CC1(C)CC(NC(=O)c2cccc(S(=O)(=O)N(Cc3ccccc3)c3ccccc3)c2)CC(C)(C)N1 and report it.
result: -5.74

query: Find the recorded inhibition belonging to CCC(=O)Nc1cccc(-c2ccc(N3CCCCC3)nn2)c1 and report it.
result: 2.67

query: Find the recorded inhibition belonging to COC(=O)c1cc(NC(=O)c2ccc(-c3ccccc3)cc2)ccc1Cl and report it.
result: -0.43

query: Find the recorded inhibition belonging to Cc1cccc(NC(=O)NNC(=O)COc2ccc3ccccc3c2)c1 and report it.
result: -0.35

query: Find the recorded inhibition belonging to Cc1cc(C)nc(-n2ncc3c2CC(c2ccccc2C)CC3=O)n1 (stereo unspecified) and report it.
result: 3.74

query: Find the recorded inhibition belonging to Fc1ccc(OCCOCCN2CCNCC2)cc1 and report it.
result: -3.98

query: Find the recorded inhibition belonging to Cc1occc1C(=O)Nc1nnc(C(F)(F)F)s1 and report it.
result: -11.4

query: Find the recorded inhibition belonging to N#Cc1c(-c2ccc(Cl)cc2)ccn2nc(CCC(=O)O)nc12 and report it.
result: 0.53

query: Find the recorded inhibition belonging to Cc1coc2cc3oc(=O)c(CCC(=O)NCCCN4CCCC4=O)c(C)c3cc12 and report it.
result: -8.05

query: Find the recorded inhibition belonging to Cc1ccc2cc(C)c(N3CCC(C)CC3)nc2c1 and report it.
result: -2.14

query: Find the recorded inhibition belonging to COc1ccc2[nH]c(C)c(CCN(Cc3cccs3)C(=S)Nc3ccccc3)c2c1 and report it.
result: -7.77

query: Find the recorded inhibition belonging to Cc1ccc(CSc2nc3ccccc3c(=O)n2C)cc1 and report it.
result: 6.4

query: Find the recorded inhibition belonging to C=CCc1cc(C)ccc1OCCOCCn1ccnc1 and report it.
result: -4.55

query: Find the recorded inhibition belonging to CC(C)Cn1c(NCCN(C)C)nc2c1c(=O)[nH]c(=O)n2C and report it.
result: -4.76

query: Find the recorded inhibition belonging to C/C(=N\NC(=O)CNC(=O)C1COc2ccccc2O1)c1ccc(Cl)cc1 (stereo unspecified) and report it.
result: 1.09

query: Find the recorded inhibition belonging to COc1cccc2c1C(=O)C=C(C)C2=O and report it.
result: -8.66

query: Find the recorded inhibition belonging to O=C(c1cc2ccccc2o1)N(Cc1nnc(-c2ccccc2Cl)o1)C1CC1 and report it.
result: -0.85

query: Find the recorded inhibition belonging to Cc1ccc(OCCNC(=O)CNC(=O)c2ccc(C)cc2)cc1 and report it.
result: 5.29

query: Find the recorded inhibition belonging to Cc1ccc2cc(C)c(N3CCN(c4ccc(F)cc4)CC3)nc2c1 and report it.
result: 0.67

query: Find the recorded inhibition belonging to CC(C)CNC(=O)c1c(N)n(/N=C/c2ccccn2)c2nc3ccccc3nc12 and report it.
result: 4.33

query: Find the recorded inhibition belonging to CC1(C)NC(C(=O)O)Cc2c1[nH]c1ccccc21 (stereo unspecified) and report it.
result: -1.33

query: Find the recorded inhibition belonging to COc1ccc(Oc2ccc(/C=C/C(=O)c3ccc(O)cc3)cc2[N+](=O)[O-])cc1 and report it.
result: 8.6

query: Find the recorded inhibition belonging to COc1cccc(N2CCN(C(=O)c3cccn4c(=O)c5c(C)c(C)sc5nc34)CC2)c1 and report it.
result: -1.68

query: Find the recorded inhibition belonging to O=C(COc1ccc(Br)cc1)N1CCc2ccccc2C1 and report it.
result: 1.78

query: Find the recorded inhibition belonging to COc1cc2nc(Nc3cccc(F)c3)nc(N)c2cc1OC and report it.
result: 34.9

query: Find the recorded inhibition belonging to CN(CCC#N)C(=O)COC(=O)c1ccc2c(c1)C(=O)N(C1CCCCC1)C2=O and report it.
result: 11.1

query: Find the recorded inhibition belonging to O=C(O)COc1ccc(NC(=O)c2ccc3c(c2)C(=O)N(C2CCCCC2)C3=O)cc1 and report it.
result: -5.81

query: Find the recorded inhibition belonging to CCC(=O)Nc1ccc2c(c1)C(=O)N(C1CCCCC1)C2=O and report it.
result: 12.2

query: Find the recorded inhibition belonging to COc1ccc(N(CC(=O)NC2CCCCCC2)S(=O)(=O)c2ccccc2)cc1Cl and report it.
result: 11.1
